Biological target: Virion infectivity factor (Human immunodeficiency virus type 1 group M subtype B (isolate BH10)) + Virion infectivity factor (Human immunodeficiency virus type 1 group M subtype B (isolate BRU/LAI)) + Virion infectivity factor (Human immunodeficiency virus type 1 group M subtype B (isolate PCV12)) + Virion infectivity factor (Human immunodeficiency virus type 1 group M subtype B (isolate HXB2)) + DNA dC->dU-editing enzyme APOBEC-3G (Homo sapiens) (UniProt P69720+P69721+P69722+P69723+Q9HC16)
Assay: inhibitors of Vif binding to APOBEC3G peptide, primary screen, biochemical, TR-FRET, GST-Vif 1-94, biotin-A3G peptide, dose response retest (AID 1117319);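 note: Vif residues 1-94 fused to GST binding biotinylated APOBEC3G peptide 110-148; 0% = full assay without inhibitor and 100% = GST in place of GST-Vif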
Conditions: active compounds read high
Among all 260,000 compounds or so, about 1,500 (0.58%) were called active. Not shown: some 5% with an inconclusive outcome. The list is a sample of the results. Measured potencies and affinities stand elsewhere.
MEASUREMENT NAME: inhibition (%)

1) CSc1ncccc1C(=O)OCC(=O)NC(=O)NCCC(C)C ... -2.12
2) CCn1c(/C=C/c2ccc(O)c(O)c2)nc2ccccc2c1=O ... 23.1
3) O=C(Cc1ccccc1)NNC1CC(=O)N(c2ccc(Cl)cc2)C1=O (configuration not stated) ... 8.41
4) O=C(NC(=O)c1ccccc1)NC1(C(F)(F)F)OCCO1 ... -4.29
5) O=C(CCCC(=O)OCC(F)(F)C(F)F)Nc1ccccc1F ... 0.88
6) Fc1cccc(NC(=S)N2CCCCC2)c1 ... 1.92
7) CCCN(CC(=O)Nc1ccccc1C)C(=O)c1ccc(C)c(S(=O)(=O)N2CCCCC2)c1 ... -7.29
8) O=C1N/C(=C/c2cccn2-c2ccc(F)cc2)C(=O)N1Cc1ccccc1F ... 5.17
9) C=CCn1c(O)c(C(CC)=NCc2cccnc2)c(=O)[nH]c1=O ... 7.28
10) CCC(C)(C)NC(=O)C(c1ccc(C)cc1)N(CCN1CCOCC1)C(=O)CNC(=O)c1cccs1 (configuration not stated) ... 2.09
11) CC(C)Oc1cc(NC(=O)CS(=O)(=O)CC(=O)N(C)C)c(Cl)cc1Cl ... 4.46
12) O=C(Cc1ccccc1)Nc1ccc(N2CCN(Cc3ccccc3F)CC2)cc1 ... 6.73
13) CC1CCN(CCNC(=O)c2ccc(NC(=O)C3CCCO3)cc2)CC1 (configuration not stated) ... 2.71
14) Cc1ccc2[nH]c(=O)c(C3=NN(C(=O)CCC(=O)O)C(c4cccs4)C3)c(-c3ccccc3)c2c1 (configuration not stated) ... 2.41
15) COC(=O)C(C)N1C(=O)S/C(=C\c2ccc(-c3ccc(C(=O)O)cc3C)o2)C1=O (configuration not stated) ... 15.9
16) Cc1ccsc1C(=O)NC(C)c1ccc2c(c1)OCO2 (configuration not stated) ... 0.99
17) COc1ccc(/C=C/c2nc3ccccc3c(=O)n2-c2cccc(C(=O)O)c2)cc1 ... -12.6
18) COc1ccccc1CCc1nnc(CCC(=O)NCC[C@@H]2C[C@@H]3C=C[C@H]2C3)o1 ... 2.31
19) Cc1cc(SCC(=O)OC(C)C(=O)N(C)c2ccccc2)nc2ccccc12 (configuration not stated) ... -7.66
20) O=C(CSc1nnc(NC(=O)c2cccc(Cl)c2)s1)NCC1CCCO1 (configuration not stated) ... 3.82
21) Cc1ccc(-c2cc(C(=O)Nc3ccccc3C)c3ccccc3n2)o1 ... 0.87
22) C=CCn1c(O)c(C(CC)=Nc2ccccc2NC(=O)CC)c(=O)[nH]c1=O ... 30.8
